Can you tell me GI50 for the items I'm about to list?
System: HCC 2998
Experiment: NCI tumour cell line growth inhibition, 48 h
Calls of active or inactive are those of the source. No stated cut-off is given here; in the data, active = GI50 up to about 1.1 µM and inactive = higher.

Requested read-out: GI50. Entry: COc1cc(/C=C2\[C@H]3c4c(c(OC)c(C)c(OC)c4OC)C[C@@H](C(=O)N2Cc2ccccc2)N3C(=O)OC(C)C)c(OC)c(C)c1OC
29.6 µM (inactive)

For CN(C)c1ccc(/C=C/C(=O)CC(=O)/C=C/c2ccc(N(C)C)cc2)cc1 , what is its reported GI50?
> 100 µM (inactive)

Could you share which GI50 value was measured for O=c1c(-c2ccccc2)c(SCCN2CCOCC2)n(-c2ccccc2)c(=S)n1-c1ccccc1 ?
> 100 µM (inactive)

Dear colleague, I am looking for the recorded GI50 of the following molecule: Cc1cc(N(CCC#N)CCC#N)ccc1/C=C(\NC(=O)/C=C/c1ccccc1)C(=O)N=[N+]=[N-]
> 100 µM (inactive)

Item C/C(=N\NC(=S)NCCCCNC(=S)N/N=C(\C)c1ccccn1)c1ccccc1 has what recorded GI50?
1.66 µM (inactive)

# input molecule: O=C(Nc1nc(C23CC4CC(CC(C4)C2)C3)cs1)c1c(O)c2ccccc2[nH]c1=O ; wanted: its GI50
> 100 µM (inactive)

* * *

Assign GI50 to each entry below.
System: CCRF-CEM
Experiment: NCI tumour cell line growth inhibition, 48 h
Calls of active or inactive are those of the source. No stated cut-off is given here; in the data, active = GI50 up to about 1.1 µM and inactive = higher.

Record request: GI50 value, item O=C1c2ccccc2-c2nc(-c3cccs3)cc3c2c1nc1ccccc13
22.3 µM (inactive)

Look up GI50 for this compound: COC(=O)C1=C(O)CCCC(C2CCCCC(=O)C2C(=O)OC)=C1 (stereo not given)
20.8 µM (inactive)

So what does the record say about GI50 for COC(=O)C(=O)C(C(=O)C(=O)Nc1ccc(OC)cc1[N+](=O)[O-])c1nc2ccc([N+](=O)[O-])cc2nc1O (stereo not given) ?
> 100 µM (inactive)

Fill blank: measured GI50 of the compound CCCCN(CCCC)CC(C(=O)Nc1ccc([N+](=O)[O-])cc1[N+](=O)[O-])/C(C)=N\NC(=O)C[N+](C)(C)C (stereo not given) is ____.
41.8 µM (inactive)

Param item = C[C@@H](NC1CCCC[C@H]1O)c1ccccc1 (stereo not given in full) ; retrieve measured GI50.
> 100 µM (inactive)

* * *

System: NCI-H522
Experiment: NCI tumour cell line growth inhibition, 48 h
Active and inactive are the calls of the source. Cut-off read from the data, not from the text of the source: active = GI50 up to about 1.1 µM and inactive = higher.
Your answer must be one of the following: active, inactive

Any idea what this test logged for COC(=O)/C=C(/C(=O)OC)c1c(C)cc2c(C)cc(C)cc(C)c1-2 ?
inactive

Dear all, I need the recorded test outcome for Nc1ncnc2c1ncn2C1OC(CSC(F)(F)F)C(O)C1O (centres undefined) , thank you.
inactive

Entry O=C(CC(C(=O)c1ccoc1)c1ccco1)c1ccco1 (centres undefined) : call = ?
inactive

Outcome? CSCCC(NCc1c(O)ccc2ccc(=O)oc12)C(=O)O (centres undefined)
inactive

// outcome(item) with item = COC(=O)[C@@H](NC(=O)N(CCC#N)CCCN(C(=O)N[C@H](Cc1ccccc1)C(=O)OC)c1ccccc1)C(C)C
inactive

Hi, sorry to bother you, what did the test record for CC(C)NCCC(O)c1cc2ccccc2o1 (centres undefined) ?
inactive

Recorded test outcome, item C=C1[C@H](OCC(C)C)[C@@H](OCC(C)C)[C@@H](O)C(C)(C)/C=C/[C@H](C)C(=O)[C@@]2(O)C[C@H](C)[C@H](O)[C@@H]2[C@H]1OCC(C)C
inactive

For C/C=C(/C)C(=O)O[C@H]1[C@H]2[C@@H]([C@@H](OC(C)=O)[C@H](C)C(=O)[C@@]34C[C@@H](C)C(=O)[C@]3(/C=C(\C)[C@H]1OC(C)=O)O4)C2(C)C , which call appears in the assay record?
inactive

I would be grateful if you could indicate the recorded call for NC(=O)C12C3C4C1C1C2C3C41C(N)=O (centres undefined) .
inactive

Returns: the outcome recorded for COc1cc([N+](=O)[O-])cc2c1NC(=O)C2(C)SC (centres undefined) in this assay.
inactive

Hi, do you know how COc1c(O)cc2c3c(ccnc13)NC=C2 came out in this test?
inactive

Please share the test call associated with COc1nc(O)nc2c1C(c1ccc([N+](=O)[O-])cc1)c1c(OC)nc(O)nc1O2 .
inactive

Status in this test for Cc1cc([N+](=O)[O-])ccc1NC(=O)C(=O)C(C(=O)c1ccccc1-c1ccccc1)C1OC(=O)c2ccccc21 (centres undefined) ?
inactive

How did this test come out for C/C(=N\NC(=S)NCCCCNC(=S)N/N=C(\C)c1ccccn1)c1ccccc1 ?
inactive

Please let me know the test result on file for Cc1cc(O)nc(NNC(C#N)c2ccc(N(C)C)cc2)n1 (centres undefined) .
inactive

Dear colleague, could you share the recorded outcome for CC(=O)CC(=O)ON(C)C(C)=O when you have a moment?
inactive

For Cc1cc(O)ccc1C1(c2ccc(F)cc2)OC(=O)c2ccccc21 (centres undefined) , which call appears in the assay record?
active

Give the logged outcome of this assay for the following molecule: N=C1N(S(=O)(=O)c2ccccc2)[C@@H](Cc2ccccc2)[C@H](c2ccccc2)C1(c1ccccc1)c1ccccc1
inactive

Call for entry CC1=CC(O)(c2ccccc2)C(N2CCOCC2)N1O (centres undefined) :
inactive
